Origin of values: patent US6541463B1

Target: glucocorticoid receptor (Rattus norvegicus)
Construct: from tissue; host or cells: liver cytosol of male Sprague-Dawley rats
Sequence (P06536 1-795): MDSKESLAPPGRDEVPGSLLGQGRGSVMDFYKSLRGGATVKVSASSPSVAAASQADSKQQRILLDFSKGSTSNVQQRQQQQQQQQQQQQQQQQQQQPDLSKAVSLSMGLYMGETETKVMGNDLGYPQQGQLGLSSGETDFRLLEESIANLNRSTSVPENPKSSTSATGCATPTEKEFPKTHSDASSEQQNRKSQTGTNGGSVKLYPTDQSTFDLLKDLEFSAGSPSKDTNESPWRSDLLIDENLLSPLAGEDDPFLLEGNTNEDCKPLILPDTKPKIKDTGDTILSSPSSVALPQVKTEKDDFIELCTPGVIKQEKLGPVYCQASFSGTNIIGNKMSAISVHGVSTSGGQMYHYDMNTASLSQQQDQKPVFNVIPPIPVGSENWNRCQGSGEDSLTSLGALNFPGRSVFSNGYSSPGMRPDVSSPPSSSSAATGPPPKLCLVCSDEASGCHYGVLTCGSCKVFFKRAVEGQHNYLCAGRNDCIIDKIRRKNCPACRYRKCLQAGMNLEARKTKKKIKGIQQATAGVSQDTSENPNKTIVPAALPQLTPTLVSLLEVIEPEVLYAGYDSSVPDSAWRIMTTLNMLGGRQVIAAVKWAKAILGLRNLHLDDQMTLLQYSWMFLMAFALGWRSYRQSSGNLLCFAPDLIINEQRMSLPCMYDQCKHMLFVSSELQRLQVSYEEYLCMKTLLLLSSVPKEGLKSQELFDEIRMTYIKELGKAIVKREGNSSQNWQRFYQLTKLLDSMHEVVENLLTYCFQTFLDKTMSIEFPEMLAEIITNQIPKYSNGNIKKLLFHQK
Test: Glucocorticoid receptor assay: inhibition of [3H]-dexamethasone binding, liver cytosol
Details: Table 4′; E^−6; read-out: % Inhibition Glucocorticold Receptor E^−6
Is inhibition at 1 µM at least 1%? Then 1.0. If not, 0.0.

Would you please look over these solved cases?
| Compound | Category label |
| --- | --- |
| CN(C)C(=O)c1ccc2c(c1)CCC1C2CCC2(C)C1CCC21CCC(C)(C)C(=O)O1 (stereo not shown) [EM-1403] | 0.0 |
| CC1(C)CCC2(CCC3C4CCc5cc(OCCN6CCCCC6)ccc5C4CCC32C)OC1=O (stereo not shown) [EM-1390-CS] | 0.0 |
| COc1ccc2c(c1)CCC1C2CCC2(C)C1CCC21CCC(C)(C)C(=O)O1 (stereo not shown) [EM-1370] | 0.0 |
| CC1(C)CC[C@@]2(CCC3C4CCc5cc6oncc6cc5C4CC[C@@]32C)OC1=O (stereo partly shown) [EM-1407-CS] | 0.0 |
| CC1CCC2(CCC3C4CCc5ccccc5C4CCC32C)OC1=O (stereo not shown) [EM-1025] | 0.0 |
| CCOc1ccc2c(c1)CCC1C2CC[C@@]2(C)C1CC[C@@]21CCC(C)(C)C(=O)O1 (stereo partly shown) [EM-1369] | 1.0 |
| CCS(=O)(=O)Oc1ccc2c(c1)CCC1C2CCC2(C)C1CCC21CCC(C)(C)C(=O)O1 (stereo not shown) [EM-1364-CS] | 1.0 |
| COCCOc1cc2c(cc1C(=O)OC)C1CC[C@@]3(C)C(CC[C@@]34CCC(C)(C)C(=O)O4)C1CC2 (stereo partly shown) [EM-1402-CS] | 1.0 |

query: Does inhibition at 1 µM meet or surpass 1% for COc1ccc2c(c1)C(=O)CC1C3CCC4(CCC(C)(C)C(=O)O4)C3(C)CCC21O (stereo not shown) [EM-1386] ?
result: 0.0

query: Does inhibition at 1 µM meet or surpass 1% for COCCOc1cc2c(cc1C(=O)O)C1CCC3(C)C(CCC34CCC(C)(C)C(=O)O4)C1CC2 (stereo not shown) [EM-1405] ?
result: 0.0

query: Does inhibition at 1 µM meet or surpass 1% for CC12CCC3c4ccc(F)cc4CCC3C1CCC21CCCC(=O)O1 (stereo not shown) [EM-1170-CS] ?
result: 1.0
